Test system: Plasmodium berghei
assayNotes: Screen against P. berghei liver stage (PbLuc), transformed with Luciferase, at 10uM
Assay type: functional, HepG2
measurementContext: tested at 10 uM
Screen size: about 69,000 compounds; about 8,600 (12%) showed an effect of 50% or more. The full list was thinned out, with strong results kept by preference.
valueKind: INHIBITION (%)
One number for each entry, in %.

{"molecule": "CCOCC(=O)NCC1(NC(C)c2ccccc2)CCOCC1 (configuration not stated)", "INHIBITION, %": 42}

The following molecules each have a reported value; give each one's INHIBITION.
1. O=C1CN(Cc2ccc3ccccc3n2)CCN1C1CCCC1
2. Cc1ccc(C(=O)NCc2ccccc2S(=O)(=O)N(C)CCO)cc1F
3. COCCN1C[C@@H]2CN(Cc3ccsc3)CCC[C@]2(C(=O)O)C1
4. CCOc1ccccc1C(=O)Nc1cccc(C[S+](C)[O-])c1C (configuration not stated)
5. CCn1cc(CN(C)S(=O)(=O)c2cnn(C)c2)cn1

a:
1. 36
2. -27.8
3. 3.47
4. 16.645
5. 7.66

The following molecules each have a reported value; give each one's INHIBITION.
1. CC(NC1(CNC(=O)OC(C)(C)C)CCOCC1)c1ccccc1 (configuration not stated)
2. Cc1nn(C)c(C)c1C(=O)NCc1ccnc(OCC(F)(F)F)c1
3. CC(NC1(CNC(=O)CC2CCCC2)CCOCC1)c1ccccc1 (configuration not stated)

a:
36.6
13.765
82.1

The following molecules each have a reported value; give each one's INHIBITION.
1. CC(C)CN1CCn2nc(CNc3ncnc4[nH]ccc34)cc2C1
2. CCC1c2ccsc2CCN1C(=O)NCc1cc(C)on1 (configuration not stated)
3. CC(NC1(CNC(=O)NC2CC2)CCOCC1)c1ccccc1 (configuration not stated)

a:
1: -2.39; 2: 11.915; 3: 43.1

###

System: Plasmodium berghei
assayNotes: Screen against P. berghei liver stage (PbLuc), transformed with Luciferase, at 10uM
Type: functional, HepG2
measurementContext: tested at 10 uM
Among all 69,000 compounds or so, about 8,600 (12%) showed an effect of 50% or more. Only a selection was taken, and strong results are over-represented in it overall.
Record form. Attribute: INHIBITION. Fill in for each entry.
Give bare numbers, in %.

{"compound": "Cc1nn(C2CCCC2)c2nc(C(C)(C)CN3CCN(C)CC3)[nH]c12", "testSystem": "Plasmodium berghei", "INHIBITION / %": 49.4}
{"compound": "CCOCC(O)CN1CCN(C(=O)c2cccc(CC#N)c2)CC1 (stereo unspecified)", "testSystem": "Plasmodium berghei", "INHIBITION / %": 9.54}
{"compound": "Cc1ccoc1C1=NNC(=CN2CCCC(Cn3cncn3)C2)O1 (stereo unspecified)", "testSystem": "Plasmodium berghei", "INHIBITION / %": 27.1}
{"compound": "CC(C)C(NC(=O)Cn1nc2c(cc1=O)CCCC2)C(=O)O (stereo unspecified)", "testSystem": "Plasmodium berghei", "INHIBITION / %": -0.621}
{"compound": "CCn1cc2c(n1)C(COC)CN(C(=O)CCOc1ccccc1)C2 (stereo unspecified)", "testSystem": "Plasmodium berghei", "INHIBITION / %": -37.9}
{"compound": "COc1cc(C(F)(F)F)sc1C(=O)O", "testSystem": "Plasmodium berghei", "INHIBITION / %": 20.8}

The following compounds each have a reported value; give each one's INHIBITION.
1. COCCNC(=O)Cn1cc(OCc2ccccc2F)c(=O)cc1CO
2. COc1cc(N2CCC[C@]3(C(=O)O)CN(C(C)C)C[C@@H]3C2)ncn1
3. NC(=O)CN1CCC(OCc2ccc(Cl)c(Cl)c2)CC1
4. OCCC1(NCc2ccc(-n3cccn3)cc2)CCOCC1
5. Cc1nc(CN2CCCC3(CCN(c4cnn(C)c4)C3=O)C2)cs1 (stereo unspecified)

a:
1: 10.5; 2: 26.5; 3: 33.1; 4: 12; 5: 6.55

###

System: Plasmodium berghei
assayNotes: Screen against P. berghei liver stage (PbLuc), transformed with Luciferase, at 10uM
Type: functional, HepG2
measurementContext: tested at 10 uM
The campaign covered roughly 69,000 compounds. About 8,600 (12%) showed an effect of 50% or more. Only a selection was taken, and strong results are over-represented in it overall.
Threshold 20%: INHIBITION strictly smaller gives 1, otherwise 0.

{"molecule": "Cc1cnc(CC2COCCN(C(=O)CN3CCOCC3)C2)cn1 (stereo unspecified)", "testSystem": "Plasmodium berghei", "answerLabel": 1}

q: Say whether its INHIBITION is strictly beneath 20%. Entry: `Cc1cc(C[C@@H]2CCC[C@H]2NCc2ccc(C(F)(F)F)cc2)on1`
a: 0

q: Would you kindly repeat that for `Cc1cc(C)nc(N2CCC(C(=O)Nc3n[nH]c(C)n3)CC2)n1` ?
a: 0

q: Would you kindly repeat that for `CCN(Cc1cnn(C)c1)C[C@H]1CC[C@@H](Cc2ccc(C#N)cc2)O1` ?
a: 1

q: Would you kindly repeat that for `COc1ncccc1CN1C[C@H]2C[C@@H](C(=O)NCC3CC3)N(C)[C@H]2C1` ?
a: 0

q: Would you kindly repeat that for CCOCCN1CCN(CCCS(C)(=O)=O)CC1C (stereo unspecified) ?
a: 1

q: Would you kindly repeat that for `Cc1cc(C[C@@H]2CCC[C@H]2NCc2cc(F)ccc2F)on1` ?
a: 1

q: Would you kindly repeat that for O=C1Nc2ccccc2CN(CC2CC2)C12CCNC2 (stereo unspecified) ?
a: 0

q: Would you kindly repeat that for Cc1ccc(Cl)cc1N1CCC(CNC(=O)Cn2cccn2)C1 (stereo unspecified) ?
a: 1

q: Would you kindly repeat that for Cc1ccc(CC(=O)N2CCCC(n3nc(C)cc3C)C2)cn1 (stereo unspecified) ?
a: 1

q: Would you kindly repeat that for CCC1(c2ccc(NS(=O)(=O)N(C)C)cc2)CCC(=O)NC1=O (stereo unspecified) ?
a: 1

###

Test system: Plasmodium berghei
assayNotes: Screen against P. berghei liver stage (PbLuc), transformed with Luciferase, at 10uM
Format: functional, HepG2
measurementContext: tested at 10 uM
Hit rate of the full screen: of about 69,000 compounds, about 8,600 (12%) showed an effect of 50% or more. Many of the other results were omitted from the sample, so strong results are more common in it than they were.
valueKind: INHIBITION (%)
Answers are plain numbers, in %.

{"compound": "CN1CCN(C2CCN(c3cnc4ccccc4n3)CC2)C1=O", "testSystem": "Plasmodium berghei", "dataValue": 76.5}
{"compound": "O=C1NCCN1C1CCN(Cc2ccccn2)CC1", "testSystem": "Plasmodium berghei", "dataValue": -14.2}
{"compound": "O=C(C1CCOC1)N1CCC2(CC1)COCCN(Cc1ccncc1)C2 (centres undefined)", "testSystem": "Plasmodium berghei", "dataValue": 1.94}
{"compound": "O=C(c1ccc(F)cc1)N1C[C@H]2CCC[C@@]2(COCc2ccncc2)C1", "testSystem": "Plasmodium berghei", "dataValue": 16.8}
{"compound": "O=C(C1CCS(=O)(=O)CC1)N1CCC(Cc2ccc(F)cc2)CC1", "testSystem": "Plasmodium berghei", "dataValue": 57.3}
{"compound": "COc1ccc(CN2CCOCC3(CCN(C4CCOCC4)C3)C2)cc1 (centres undefined)", "testSystem": "Plasmodium berghei", "dataValue": 11.6}

The following compounds each have a reported value; give each one's INHIBITION.
1. O=C1NCCN1C1CCN(Cc2coc(-c3ccccc3)n2)CC1
2. CN(C)CC(=O)N1CCC2(CC1)COCCN(Cc1ccncc1)C2
3. NCCCC(=O)NCC1(O)CCCN(c2ccnc3cccnc23)C1 (centres undefined)
4. O=C(N[C@H]1CN[C@H]2CCCO[C@H]21)c1cscn1
5. O=C(C1CCCO1)N1CCC2(CC1)COCCN(Cc1ccncc1)C2 (centres undefined)
6. CN1CCCC1c1ccnc(-c2ccccc2)n1 (centres undefined)

a:
1: 33.3; 2: 61.4; 3: 4.35; 4: 1.81; 5: 5.44; 6: -24.4

The following compounds each have a reported value; give each one's INHIBITION.
1. Cn1cnc2c1CCN(c1ccnc(-c3ccccc3)n1)C2
2. O=C(c1ccsc1)N1CCC2(CC1)COCCN(Cc1ccncc1)C2
3. CCS(=O)(=O)N1CCC2(CCCN(Cc3cc(OC)ccc3F)C2)C1 (centres undefined)
4. c1ccc(-c2nccc(N3CCc4c(ncn4C4CC4)C3)n2)cc1
5. c1cc(CN2CCOCC3(CCN(C4CCOCC4)C3)C2)ccn1 (centres undefined)
6. O=C(N[C@@H]1CN[C@@H]2CCCO[C@@H]21)c1cscn1
7. CC(C(=O)N1CCC(Cc2ccc(F)cc2)CC1)n1ccnc1 (centres undefined)
8. CN1CCN(C2CCN(Cc3noc(-c4ccccc4)n3)CC2)C1=O

a:
[61.2, 25.2, -14, 40.9, 52.2, 11.4, 32.8, 8.11]

Each recorded value in this set is attributed to ChEMBL document CHEMBL4513216.
